# targetOfAssay: HDAC6 (Homo sapiens)
# Sequence (Q9UBN7 whole entry): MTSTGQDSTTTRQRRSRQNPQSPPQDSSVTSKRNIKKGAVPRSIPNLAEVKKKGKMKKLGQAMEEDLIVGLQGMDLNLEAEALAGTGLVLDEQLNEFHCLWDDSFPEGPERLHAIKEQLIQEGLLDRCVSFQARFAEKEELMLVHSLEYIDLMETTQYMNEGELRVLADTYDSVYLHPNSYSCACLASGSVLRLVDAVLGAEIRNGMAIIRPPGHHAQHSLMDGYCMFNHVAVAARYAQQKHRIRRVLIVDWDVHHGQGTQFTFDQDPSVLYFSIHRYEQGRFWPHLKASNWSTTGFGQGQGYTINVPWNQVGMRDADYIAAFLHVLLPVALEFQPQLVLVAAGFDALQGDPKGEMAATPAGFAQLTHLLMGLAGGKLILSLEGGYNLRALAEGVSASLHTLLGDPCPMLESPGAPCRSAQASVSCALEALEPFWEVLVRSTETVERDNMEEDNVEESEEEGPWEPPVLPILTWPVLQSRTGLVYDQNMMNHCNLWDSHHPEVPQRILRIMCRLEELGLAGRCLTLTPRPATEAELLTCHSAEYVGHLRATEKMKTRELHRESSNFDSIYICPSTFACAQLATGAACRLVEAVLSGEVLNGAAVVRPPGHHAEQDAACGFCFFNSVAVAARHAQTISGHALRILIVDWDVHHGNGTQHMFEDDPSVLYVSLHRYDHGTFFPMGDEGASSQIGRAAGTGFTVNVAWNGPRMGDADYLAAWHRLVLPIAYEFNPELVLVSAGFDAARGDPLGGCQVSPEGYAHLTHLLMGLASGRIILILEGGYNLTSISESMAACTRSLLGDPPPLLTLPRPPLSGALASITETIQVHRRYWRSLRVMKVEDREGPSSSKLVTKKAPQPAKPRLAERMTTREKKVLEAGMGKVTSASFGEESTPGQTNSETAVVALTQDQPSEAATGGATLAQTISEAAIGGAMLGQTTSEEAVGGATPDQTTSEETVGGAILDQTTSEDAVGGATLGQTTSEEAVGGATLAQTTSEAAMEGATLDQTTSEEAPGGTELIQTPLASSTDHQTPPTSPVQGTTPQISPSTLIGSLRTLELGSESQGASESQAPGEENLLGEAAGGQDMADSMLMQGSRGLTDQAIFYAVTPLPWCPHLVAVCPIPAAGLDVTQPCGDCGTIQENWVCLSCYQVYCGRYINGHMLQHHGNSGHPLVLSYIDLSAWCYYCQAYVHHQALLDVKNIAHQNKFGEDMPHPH
# assayExplanation: Human HDAC enzyme inhibitor Fluor-de-Lys assay, HDAC6
# Format: biochemical
# measurementContext: HDAC6, Fluor-de-Lys assay
IC50 reference
Numeric only. Scale: µM

Field IC50 (HDAC6 (Homo sapiens)), entry CCC(=O)CCCCC[C@H](NC(=O)[C@H]1CC12CCN(C)CC2)c1ncc(-c2cnc3c(c2)ncn3C)[nH]1 [Compound 256] : 3.93

Field IC50 (HDAC6 (Homo sapiens)), entry CCC(=O)CCCCC[C@H](NC(=O)[C@H]1CC12CCN(C)CC2)c1ncc(-c2ccc(-c3cccnc3)nc2)[nH]1 [Compound 262] : 33.5

Field IC50 (HDAC6 (Homo sapiens)), entry CCC(=O)CCCCC[C@H](NC(=O)[C@H]1CC[C@@]2(CC1)OC(=O)c1ncccc12)c1ncc(-c2ccccc2)[nH]1 [Compound 374] : 11.2

Please find the next molecule below.
Field IC50 (HDAC6 (Homo sapiens)), entry CCC(=O)CCCCC[C@H](NC(=O)[C@H]1CC12CCN(C)CC2)c1ncc(-c2ccc(F)cc2F)[nH]1 [Compound 289] : 10.4

====

# targetOfAssay: Recombinant human HDAC2 (Homo sapiens)
# Construct: Full length human HDAC2-FLAG was expressed in baculovirus infected Sf9 cells; FLAG (C); made in house; host or cells: Sf9 (baculovirus)
# assayExplanation: Human HDAC enzyme inhibitor Fluor-de-Lys assay, HDAC2
# Assay type: biochemical
# measurementContext: recombinant human HDAC2, Fluor-de-Lys assay
# Procedure: Human HDAC Enzyme Inhibitor Fluor-De-Lys Assay Recombinant human HDAC8 (BML-SE145-0100) and HDAC10 (BML-SE559-0050) enzymes, HDAC substrates BML-KI104 and BML-KI178, and HDAC developer solutions BML-KI105 and BML-KI176 were purchased from Enzo Life Sciences. […] The histone deacetylase activities of HDAC1, HDAC2, HDAC3, HDAC6, and HDAC8 were measured in modified FLUOR DE LYS assays in 384-well format. […] The released AMC is then detected by its fluorescence. […]
IC50 reference
Numeric only. Scale: nM

GET /value?item= `CCC(=O)CCCCC[C@H](NC(=O)CCN1C(=O)C(CC)=NC12CCOCC2)c1ncc(-c2ccccc2)[nH]1` &field=IC50 returns 154

GET /value?item= `CCC(=O)CCCCC[C@H](NC(=O)CC1CC2(CNC2)C1)c1nnc(-c2cc3ccccc3nc2OC)o1` &field=IC50 returns 77.6

GET /value?item= `CCC(=O)CCCCC[C@H](N)c1ncc(-c2cc3ccc(=O)n(C)c3cc2OC)o1` &field=IC50 returns 444

Please find the next compound below.
GET /value?item= `CCC(=O)CCCCC[C@H](NC(=O)[C@H]1CC[C@]2(CC1)OC(=O)c1ncccc12)c1nnc(-c2cc3ccccc3nc2OC)o1` &field=IC50 returns 67.6

====

# System: KARN cells (Jurkat 2C4)
# assayExplanation: cells
# Assay type: cell-based
# measurementContext: Homo sapiens, Jurkat, read-out: Karn EC50 (nM) 5% NHS, 5% normal human serum; luciferase induction, 100% = 2 μM SAHA
readout: EC50 (nM)
Numeric only. Scale: nM

Field EC50 (KARN cells (Jurkat 2C4)), entry CCC(=O)CCCCC[C@H](NC(=O)[C@H]1CC[C@]2(CC1)OC(=O)c1cccnc12)c1ncc(-c2ccccc2)[nH]1 [Compound 378] : 2990

Field EC50 (KARN cells (Jurkat 2C4)), entry CCC(=O)CCCCC[C@H](NC(=O)[C@H]1CC12CCN(C)CC2)c1ncc(-c2ccc(F)cc2F)[nH]1 [Compound 289] : 1090

Field EC50 (KARN cells (Jurkat 2C4)), entry CCC(=O)CCCCC[C@H](NC(=O)[C@H]1CC12CCN(C)CC2)c1ncc(-c2ccc3c(c2)c2ccccc2n3C)[nH]1 [Compound 265] : 370

Field EC50 (KARN cells (Jurkat 2C4)), entry CCC(=O)CCCCC[C@H](NC(=O)C1=NOC2(CCN(C)CC2)C1)c1ncc(-c2cc3ccncc3cc2OC)o1 [Compound 415] : 118

====

IC50 reference
# targetOfAssay: Recombinant human HDAC2 (Homo sapiens, UniProt Q92769)
# Construct: Full length human HDAC2-FLAG was expressed in baculovirus infected Sf9 cells; FLAG (C); made in house; host or cells: Sf9 (baculovirus)
# Sequence (Q92769 whole entry): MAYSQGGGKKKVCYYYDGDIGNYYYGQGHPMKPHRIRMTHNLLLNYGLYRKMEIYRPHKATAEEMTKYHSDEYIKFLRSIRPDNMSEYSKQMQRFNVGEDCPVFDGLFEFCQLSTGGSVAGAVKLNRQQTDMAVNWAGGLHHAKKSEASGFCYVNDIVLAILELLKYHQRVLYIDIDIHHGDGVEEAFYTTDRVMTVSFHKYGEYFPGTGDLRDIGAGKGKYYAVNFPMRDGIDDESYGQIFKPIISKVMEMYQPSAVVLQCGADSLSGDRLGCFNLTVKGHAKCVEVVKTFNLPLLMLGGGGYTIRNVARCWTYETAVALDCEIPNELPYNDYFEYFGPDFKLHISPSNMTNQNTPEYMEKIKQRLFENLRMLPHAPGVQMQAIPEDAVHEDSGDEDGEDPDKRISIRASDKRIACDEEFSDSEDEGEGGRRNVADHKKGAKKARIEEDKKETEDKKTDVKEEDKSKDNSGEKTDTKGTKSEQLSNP
# assayExplanation: Human HDAC enzyme inhibitor Fluor-de-Lys assay, HDAC2
# Assay type: biochemical
# measurementContext: recombinant human HDAC2, Fluor-de-Lys assay
Numeric only. Scale: µM

Example cases with answers are listed next.
GET /value?item= CCC(=O)CCCCC[C@H](NC(=O)[C@H]1CC12CCN(C)CC2)c1ncc(-c2cnc3cccnc3c2)[nH]1 [Compound 259] &field=IC50 returns 0.095

GET /value?item= CCC(=O)CCCCC[C@H](NC(=O)[C@H]1CC12CCN(CC)CC2)c1ncc(-c2cnc3cc(C(F)(F)F)ccc3c2)[nH]1 [Compound 341] &field=IC50 returns 0.0025

Please find the next molecule below.
GET /value?item= CCC(=O)CCCCC[C@H](NC(=O)[C@H]1CC[C@]2(CC1)OC(=O)c1ccncc12)c1ncc(-c2ccccc2)[nH]1 [Compound 376] &field=IC50 returns 0.239

====

IC50 reference
# targetOfAssay: Recombinant human HDAC8 (Homo sapiens)
# Construct: purchased Enzo Life Sciences BML-SE145-0100
# Sequence (Q9BY41 whole entry): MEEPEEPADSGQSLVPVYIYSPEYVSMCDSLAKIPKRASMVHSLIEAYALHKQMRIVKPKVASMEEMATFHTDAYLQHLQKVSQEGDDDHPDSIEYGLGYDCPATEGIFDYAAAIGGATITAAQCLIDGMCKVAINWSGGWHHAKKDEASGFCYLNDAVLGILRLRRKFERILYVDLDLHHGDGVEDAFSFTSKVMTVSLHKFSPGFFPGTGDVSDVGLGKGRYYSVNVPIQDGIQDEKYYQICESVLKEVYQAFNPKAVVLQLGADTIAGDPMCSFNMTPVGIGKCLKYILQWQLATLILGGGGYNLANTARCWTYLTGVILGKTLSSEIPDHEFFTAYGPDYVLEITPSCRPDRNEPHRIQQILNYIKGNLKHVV
# assayExplanation: Human HDAC enzyme inhibitor Fluor-de-Lys assay, HDAC8
# Type: biochemical
# measurementContext: recombinant human HDAC8, Fluor-de-Lys assay

Example cases with answers are listed next.
GET /value?item= `CCC(=O)CCCCC[C@H](NC(=O)C1=NOC2(CCN(CC3CC3)CC2)C1)c1ncc(-c2cc3ccc(C)nc3cc2OC)o1` &field=IC50 returns > 0.9 µM

GET /value?item= `CCC(=O)CCCCC[C@H](NC(=O)C1=NOC2(CCN(C)CC2)C1)c1ncc(-c2cc3ccc(N(C)C)nc3cc2OC)o1` &field=IC50 returns > 0.9 µM

Please find the next compound below.
GET /value?item= CCC(=O)CCCCC[C@H](NC(=O)[C@H]1CC12CCN(C)CC2)c1ncc(-c2ccc(C(=O)NC3CCOC3)cc2)[nH]1 (stereo partly drawn) &field=IC50 returns 16.4 µM

====

# targetOfAssay: Recombinant human HDAC3/SMRT heterodimer (Homo sapiens, UniProt O15379)
# Construct: FLAG (C); made in house
# Sequence (O15379 whole entry): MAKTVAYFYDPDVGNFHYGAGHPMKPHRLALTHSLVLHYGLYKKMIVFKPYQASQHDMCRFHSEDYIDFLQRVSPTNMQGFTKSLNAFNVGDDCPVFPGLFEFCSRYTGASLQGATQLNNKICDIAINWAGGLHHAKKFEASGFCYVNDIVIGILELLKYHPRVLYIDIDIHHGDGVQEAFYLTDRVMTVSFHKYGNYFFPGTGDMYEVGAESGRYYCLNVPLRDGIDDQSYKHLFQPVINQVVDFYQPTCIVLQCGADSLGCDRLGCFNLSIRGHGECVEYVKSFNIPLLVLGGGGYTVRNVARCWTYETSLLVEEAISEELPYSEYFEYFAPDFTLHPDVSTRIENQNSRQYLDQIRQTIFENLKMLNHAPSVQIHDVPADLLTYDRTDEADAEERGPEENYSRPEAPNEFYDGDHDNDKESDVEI
# Sequence (Q9Y618 1-899 partner limits assumed): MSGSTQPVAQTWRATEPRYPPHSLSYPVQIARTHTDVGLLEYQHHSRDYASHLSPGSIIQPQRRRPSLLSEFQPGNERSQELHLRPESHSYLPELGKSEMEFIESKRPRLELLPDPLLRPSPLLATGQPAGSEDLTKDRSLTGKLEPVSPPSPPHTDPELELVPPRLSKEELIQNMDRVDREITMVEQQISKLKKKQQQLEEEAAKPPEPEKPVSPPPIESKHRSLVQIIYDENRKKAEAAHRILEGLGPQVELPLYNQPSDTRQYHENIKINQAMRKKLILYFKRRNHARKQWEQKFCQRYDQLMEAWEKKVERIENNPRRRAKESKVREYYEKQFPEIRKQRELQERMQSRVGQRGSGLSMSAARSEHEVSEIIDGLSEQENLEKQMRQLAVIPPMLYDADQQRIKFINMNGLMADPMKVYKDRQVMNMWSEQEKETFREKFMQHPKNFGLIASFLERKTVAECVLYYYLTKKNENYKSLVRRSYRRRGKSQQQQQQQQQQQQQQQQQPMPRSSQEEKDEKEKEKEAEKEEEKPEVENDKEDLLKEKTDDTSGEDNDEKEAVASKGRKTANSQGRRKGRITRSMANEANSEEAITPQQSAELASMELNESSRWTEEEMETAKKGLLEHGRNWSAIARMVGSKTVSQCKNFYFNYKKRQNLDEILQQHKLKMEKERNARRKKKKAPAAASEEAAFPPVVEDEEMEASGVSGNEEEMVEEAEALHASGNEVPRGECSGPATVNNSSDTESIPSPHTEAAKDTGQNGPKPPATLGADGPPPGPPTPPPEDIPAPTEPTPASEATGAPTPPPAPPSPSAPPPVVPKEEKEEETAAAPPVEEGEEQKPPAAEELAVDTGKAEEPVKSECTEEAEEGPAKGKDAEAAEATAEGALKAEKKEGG
# assayExplanation: Human HDAC enzyme inhibitor Fluor-de-Lys assay, HDAC3/SMRT
# Assay type: biochemical
readout: log10 IC50 (log10 of the value in nM)
Base-10 log of IC50, unit nM.

Example cases with answers are listed next.
GET /value?item= `CCC(=O)CCCCC[C@H](NC(=O)[C@H]1CC12CCN(CC)CC2)c1ncc(-c2ccc(-c3nccs3)cc2)o1` &field=log10 IC50 returns 0.76

GET /value?item= `CCC(=O)CCCCC[C@H](NC(=O)[C@H]1CC12CCN(CC)CC2)c1ncc(-c2ccc3c(cnn3C3CC3)c2)[nH]1` &field=log10 IC50 returns -0.31

GET /value?item= `COc1cc2nc(C)ccc2cc1-c1cnc([C@H](CCCCCC(=O)CC2CCC2)NC(=O)[C@H]2CC23CCN(C)CC3)o1` &field=log10 IC50 returns 1.41

Further cases:
GET /value?item= `CCC(=O)CCCCC[C@H](NC(=O)[C@H]1CC12CCN(CC)CC2)c1nc(-c2cc3ccc(C)nc3cc2OC)cn1COC(=O)C(C)(C)C` &field=log10 IC50 returns 0.06

GET /value?item= `CCN1CCC2(CC1)C[C@@H]2C(=O)N[C@@H](CCCCCC(=O)CC1CC1)c1ncc(-c2cc3ccc(C)nc3cc2OC)[nH]1` &field=log10 IC50 returns 0.33

GET /value?item= `CCC(=O)CCCCC[C@H](NC(=O)[C@H]1CC12CCN(C)CC2)c1ncc(-c2ccc3nc(N(C)C)ccc3c2)[nH]1` &field=log10 IC50 returns 2.22

====

# targetOfAssay: Recombinant human HDAC2 (Homo sapiens)
# Construct: Full length human HDAC2-FLAG was expressed in baculovirus infected Sf9 cells; FLAG (C); made in house; host or cells: Sf9 (baculovirus)
# assayExplanation: Human HDAC enzyme inhibitor Fluor-de-Lys assay, HDAC2
# Format: biochemical
IC50 reference

GET /value?item= CCC(=O)CCCCC[C@H](NC(=O)[C@H]1CC12CCN(CC)CC2)c1ncc(-c2ccc(-c3ncco3)cc2)o1 [Compound 94] &field=IC50 returns 34 nM

GET /value?item= CCN1CCC2(CC1)C[C@@H]2C(=O)N[C@@H](CCCCCC(=O)CC1CC1)c1ncc(-c2cc3ccc(C)nc3cc2OC)o1 [Compound 167] &field=IC50 returns 8 nM

GET /value?item= CCC(=O)CCCCC[C@H](NC(=O)[C@H]1CC12CCN(CC)CC2)c1ncc(-c2ccc(-c3cnc(C4CC4)nc3)cc2)o1 [Compound 161] &field=IC50 returns 163 nM

GET /value?item= CCC(=O)CCCCC[C@H](NC(=O)C1=NOC2(CCN(C)CC2)C1)c1ncc(-c2ccc3nc(C4CC4)ccc3c2)o1 [Compound 135] &field=IC50 returns 43.5 nM

GET /value?item= CCN1CCC2(CC1)C[C@@H]2C(=O)N[C@@H](CCCCCC(=O)CC1CC1)c1ncc(-c2ccc(F)cc2)[nH]1 [Compound 201] &field=IC50 returns 32.6 nM

Further cases:
GET /value?item= CCC(=O)CCCCC[C@H](NC(=O)[C@H]1CC12CCN(C)CC2)c1ncc(-c2ccc3cnc(OC)cc3c2)[nH]1 [Compound 113] &field=IC50 returns 6.6 nM

GET /value?item= CCC(=O)CCCCC[C@H](NC(=O)C1=NOC2(CCN(CC)CC2)C1)c1ncc(-c2cc3ccc(C)nc3cc2OC)o1 [Compound 204] &field=IC50 returns 3.9 nM

GET /value?item= CCC(=O)CCCCC[C@H](NC(=O)[C@H]1CC12CCN(C)CC2)c1ncc(-c2cnc3cccnc3c2)[nH]1 [Compound 67] &field=IC50 returns 101 nM

GET /value?item= CCC(=O)CCCCC[C@H](NC(=O)[C@H]1CC12CCN(C)CC2)c1ncc(-c2ccc3c(=O)n(C)ccc3c2)o1 [Compound 137] &field=IC50 returns 17.2 nM
